Listed next: entries and their corresponding Maximal Response (% P1075).
# Tested on: Guinea-Pig Bladder (GPB) Cells
# measurementNotes: Membrane Hyperpolarization (MHP) assay, DiBAC(4)3 / FLIPR
# conditionDescription: maximal steady-state hyperpolarization, normalized to 10 μM P1075 (100%)

{"compound": "O=C1COCC2=C1C(c1ccc(F)c(-c3ccco3)c1)C1=C(COCC1=O)N2 [Example 57]", "Maximal Response (% P1075)": "69 % P1075"}
{"compound": "O=C1COCC2=C1C(c1ccc(Cl)c([N+](=O)[O-])c1)C1=C(CCS1(=O)=O)N2 (single isomer, unassigned; (+)) [Example 18]", "Maximal Response (% P1075)": "95 % P1075"}
{"compound": "Cl.O=C1CNCC2=C1C(c1ccc(F)c(Br)c1)C1=C(CCS1(=O)=O)N2 (centres unmarked) [Example 10]", "Maximal Response (% P1075)": "87 % P1075"}
{"compound": "O=C1COCC2=C1C(c1ccc(C(F)(F)F)c(I)c1)C1=C(COCC1=O)N2 [Example 62]", "Maximal Response (% P1075)": "77 % P1075"}
{"compound": "Cc1ccc(C2C3=C(COCC3=O)NC3=C2C(=O)COC3)cc1Br [Example 53]", "Maximal Response (% P1075)": "98 % P1075"}
{"compound": "C=C(C)c1cc(C2C3=C(COCC3=O)NC3=C2C(=O)COC3)ccc1F [Example 64]", "Maximal Response (% P1075)": "84 % P1075"}
{"compound": "O=C1COCC2=C1C(c1ccc(F)c(C(F)(F)F)c1)C1=C(COCC1=O)N2 [Example 32]", "Maximal Response (% P1075)": "102 % P1075"}
{"compound": "O=C1COCC2=C1C(c1ccc(F)c(Br)c1)C1=C(COCC1=O)N2 [Example 1]", "Maximal Response (% P1075)": "96 % P1075"}
